These measurements were taken from ChEMBL document CHEMBL4004871.

test: Metabolic stability in human liver microsomes assessed as parent compound remaining at 10 uM after 1 hr by HPLC-MS analysis; format: ADME, microsome; settings: read-out: Stability
measured.endpoint: remaining at 1 h, 10 µM (%)

>>> observed_value("C[C@@H]1CN(S(=O)(=O)c2ccccc2C(F)(F)F)[C@@H](C)CN1C[C@]1(O)CC[C@@]2(C)[C@H](CC[C@@H]3[C@@H]2CC[C@@]2(C)C(=O)CC[C@@H]32)C1")
16.6
>>> observed_value("C[C@@H]1CN(S(=O)(=O)c2ccccc2C(F)(F)F)[C@@H](C)CN1C[C@@]1(O)CC[C@@]2(C)[C@@H](CC[C@@H]3[C@@H]2CC[C@@]2(C)C(=O)CC[C@@H]32)C1")
29.4
